- Study target: ROCK I (Homo sapiens, UniProt Q13464)
- Sequence (Q13464 whole entry): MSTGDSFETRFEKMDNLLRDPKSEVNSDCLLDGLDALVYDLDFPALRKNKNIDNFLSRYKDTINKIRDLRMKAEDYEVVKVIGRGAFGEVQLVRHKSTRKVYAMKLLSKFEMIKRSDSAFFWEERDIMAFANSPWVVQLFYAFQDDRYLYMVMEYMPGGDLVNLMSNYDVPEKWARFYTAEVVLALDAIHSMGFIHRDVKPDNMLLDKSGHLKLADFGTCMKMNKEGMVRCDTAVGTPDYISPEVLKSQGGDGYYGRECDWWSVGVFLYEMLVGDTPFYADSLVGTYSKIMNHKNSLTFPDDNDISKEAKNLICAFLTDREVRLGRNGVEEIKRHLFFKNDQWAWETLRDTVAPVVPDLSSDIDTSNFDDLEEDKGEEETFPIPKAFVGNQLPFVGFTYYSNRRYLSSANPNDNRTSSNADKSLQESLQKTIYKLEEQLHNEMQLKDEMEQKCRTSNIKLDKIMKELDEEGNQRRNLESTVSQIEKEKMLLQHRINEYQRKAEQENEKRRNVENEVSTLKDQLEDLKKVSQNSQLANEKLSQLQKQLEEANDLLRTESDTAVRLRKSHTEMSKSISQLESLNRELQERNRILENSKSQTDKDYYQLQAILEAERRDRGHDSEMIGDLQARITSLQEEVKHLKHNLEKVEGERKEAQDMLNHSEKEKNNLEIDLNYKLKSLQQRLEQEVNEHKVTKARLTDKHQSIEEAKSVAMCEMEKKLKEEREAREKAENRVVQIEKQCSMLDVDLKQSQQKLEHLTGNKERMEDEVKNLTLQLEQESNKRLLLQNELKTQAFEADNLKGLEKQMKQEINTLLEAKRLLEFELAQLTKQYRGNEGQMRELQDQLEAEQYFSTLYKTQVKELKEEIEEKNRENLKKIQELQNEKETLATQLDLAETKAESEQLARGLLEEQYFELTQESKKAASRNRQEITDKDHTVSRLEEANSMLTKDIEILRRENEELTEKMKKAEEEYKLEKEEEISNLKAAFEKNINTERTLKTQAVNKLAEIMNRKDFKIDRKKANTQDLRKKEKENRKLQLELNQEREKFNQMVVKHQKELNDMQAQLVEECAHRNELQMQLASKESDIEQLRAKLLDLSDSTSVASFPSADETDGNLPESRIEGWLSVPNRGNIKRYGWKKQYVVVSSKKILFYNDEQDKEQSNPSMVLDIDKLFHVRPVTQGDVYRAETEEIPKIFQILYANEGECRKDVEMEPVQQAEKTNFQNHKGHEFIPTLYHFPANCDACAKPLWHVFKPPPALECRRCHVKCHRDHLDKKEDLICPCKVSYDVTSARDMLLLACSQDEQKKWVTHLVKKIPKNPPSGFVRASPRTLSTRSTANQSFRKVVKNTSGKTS
- Protocol details: ROCK-I inhibition assay (radioactive enzyme assay, MBP substrate)
- Type: biochemical
- Condition set: Table 6; enzyme inhibition data (Ki)
- Procedure: Compounds were screened for their ability to inhibit ROCK using a standard radioactive enzyme assay. Assays were carried out in a solution containing 100 mM HEPES (pH 7.5), 10 mM MgCl2, 25 mM NaCl, 2 mM DTT, and 1.5% DMSO. Final substrate concentrations in the assay were 13 μM [γ-^33P] […] 50 μl of Optima Gold scintillation fluid (Perkin Elmer) was added and the plates were counted on a Top Count (Perkin Elmer). […]
Quantity name: Ki

# count of solved cases: 4
query: Please report the measured Ki for CCCN(CC(F)(F)F)C(=O)c1cc(-c2c(F)cnc3[nH]ccc23)c[nH]1
result: < 0.5 µM

query: Please report the measured Ki for O=C(c1cc(-c2c(F)cnc3[nH]ccc23)c[nH]1)N(CC1CC1)CC(F)(F)F
result: < 0.5 µM

query: Please report the measured Ki for CCC(=O)Nc1cccc(Nc2c(Cl)cnc3[nH]ccc23)c1
result: > 4 µM

query: Please report the measured Ki for CCCNC(=O)c1cc(-c2c(Cl)cnc3[nH]ccc23)c[nH]1
result: 0.5 to 5 µM

New cases:
query: Please report the measured Ki for COC(=O)N1CCCC(Nc2c(Cl)cnc3[nH]ccc23)C1 (stereo not drawn)
result: 0.5 to 5 µM

query: Please report the measured Ki for Clc1cnc2[nH]ccc2c1-c1cc2ccccc2o1
result: > 4 µM

query: Please report the measured Ki for O=C(c1csc(-c2ccnc3[nH]ccc23)n1)N1CC=CC1
result: < 0.5 µM

query: Please report the measured Ki for C[C@@H]1CC[C@@H](C)N1C(=O)c1csc(-c2ccnc3[nH]ccc23)n1
result: < 0.5 µM

query: Please report the measured Ki for CC1CCC(C)N1C(=O)c1cc(-c2c(Cl)cnc3[nH]ccc23)c[nH]1 (stereo not drawn)
result: 0.5 to 5 µM

###

- Study target: JAK3 (Homo sapiens)
- Protocol details: JAK3 inhibition assay (33P incorporation into poly(Glu)4Tyr)
- Format: biochemical
- Condition set: enzyme inhibition, Table 5
- Description: Compounds were screened for their ability to inhibit JAK using the assay shown below. Reactions were carried out in a kinase buffer containing 100 mM HEPES (pH 7.4), 1 mM DTT, 10 mM MgCl2, 25 mM NaCl, and 0.01% BSA. […] To each well of a 96 well polycarbonate plate was added 1.5 μl of a candidate JAK3 inhibitor along with 50/1 of kinase buffer containing 2 μM poly(Glu)4Tyr and 10 μM ATP. […] After washing, 60 μl of scintillation fluid was added and ^33P incorporation detected on a Perkin Elmer TopCount.
Property: Ki; scope: individual compounds

query: Please report the measured Ki for C[C@@H](CO)NC(=O)c1ccc(-c2ccnc3[nH]ccc23)s1 [compound 15]
result: < 0.5 µM

New cases:
query: Please report the measured Ki for c1cc(NCC2CCCO2)nc(-c2ccnc3[nH]ccc23)c1 (stereo not shown) [compound 36]
result: 0.5 to 5 µM

query: Please report the measured Ki for Fc1cccc(-c2ccnc3[nH]ccc23)n1 [compound 50]
result: 0.5 to 5 µM

query: Please report the measured Ki for CN(CC(O)c1ccccc1)c1cccc(-c2ccnc3[nH]ccc23)n1 (stereo not shown) [compound 55]
result: 0.5 to 5 µM

query: Please report the measured Ki for Cc1cccnc1-c1ccnc2[nH]ccc12 [compound 74]
result: 0.5 to 5 µM

###

- Study target: ROCK I (Homo sapiens, UniProt Q13464)
- Protocol details: ROCK-I inhibition assay (radioactive enzyme assay, MBP substrate)
- Type: biochemical
- Condition set: Table 6; enzyme inhibition data (Ki)
pKi: −log10 of the molar value.
Quantity name: pKi

query: Please report the measured pKi for O=C(Cn1ccc2cnc(-c3ccnc4[nH]ccc34)nc21)NCC(F)(F)F
result: < 5.40

query: Please report the measured pKi for NC(=O)C1CCCN1C(=O)c1cc(-c2ccnc3[nH]ccc23)c[nH]1 (stereo not drawn)
result: 5.30 to 6.30

query: Please report the measured pKi for COCCN(CCOC)C(=O)c1cc(-c2c(Cl)cnc3[nH]ccc23)c[nH]1
result: < 5.40

query: Please report the measured pKi for CN(CCC#N)C(=O)c1cc(-c2c(F)cnc3[nH]ccc23)c[nH]1
result: 5.30 to 6.30

query: Please report the measured pKi for O=C(CC(F)(F)F)N1CC[C@H](Nc2c(Cl)cnc3[nH]ccc23)C1
result: 5.30 to 6.30

New cases:
query: Please report the measured pKi for O=C(NCC(F)(F)F)c1ccc(-c2ccnc3[nH]ccc23)cc1
result: > 6.30

###

- Study target: JAK3 (Homo sapiens, UniProt P52333)
- Sequence (P52333 whole entry): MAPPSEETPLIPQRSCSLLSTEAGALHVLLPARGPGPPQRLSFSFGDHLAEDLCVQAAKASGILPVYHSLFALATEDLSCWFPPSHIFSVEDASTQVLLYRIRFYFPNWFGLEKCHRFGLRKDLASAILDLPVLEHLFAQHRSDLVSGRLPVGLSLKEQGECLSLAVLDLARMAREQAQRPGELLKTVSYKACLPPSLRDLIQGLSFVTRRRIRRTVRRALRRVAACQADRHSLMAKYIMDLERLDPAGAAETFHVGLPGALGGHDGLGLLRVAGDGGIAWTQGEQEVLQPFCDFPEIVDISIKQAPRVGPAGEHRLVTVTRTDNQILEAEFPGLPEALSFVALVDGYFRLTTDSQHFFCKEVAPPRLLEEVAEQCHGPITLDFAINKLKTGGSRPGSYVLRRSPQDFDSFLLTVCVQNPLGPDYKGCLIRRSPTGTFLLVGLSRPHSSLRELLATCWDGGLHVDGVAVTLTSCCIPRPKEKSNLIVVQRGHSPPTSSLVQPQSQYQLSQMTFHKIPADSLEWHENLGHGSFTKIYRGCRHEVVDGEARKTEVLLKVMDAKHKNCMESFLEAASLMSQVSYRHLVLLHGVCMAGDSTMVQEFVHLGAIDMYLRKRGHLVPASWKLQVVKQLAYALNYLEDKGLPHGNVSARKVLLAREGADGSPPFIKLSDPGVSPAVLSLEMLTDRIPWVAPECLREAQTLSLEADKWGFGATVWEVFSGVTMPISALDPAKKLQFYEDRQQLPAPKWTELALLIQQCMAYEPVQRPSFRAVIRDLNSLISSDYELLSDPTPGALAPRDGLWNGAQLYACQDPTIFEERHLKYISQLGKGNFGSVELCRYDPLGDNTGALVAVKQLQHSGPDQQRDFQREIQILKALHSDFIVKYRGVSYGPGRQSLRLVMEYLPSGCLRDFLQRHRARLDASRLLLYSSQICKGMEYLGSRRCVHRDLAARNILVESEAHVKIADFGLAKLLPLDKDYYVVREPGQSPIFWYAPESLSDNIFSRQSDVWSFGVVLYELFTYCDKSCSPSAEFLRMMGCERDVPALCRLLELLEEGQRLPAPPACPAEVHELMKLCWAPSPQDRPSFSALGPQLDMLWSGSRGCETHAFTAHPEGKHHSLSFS
- Protocol details: JAK3 inhibition assay (33P incorporation into poly(Glu)4Tyr)
- Assay type: biochemical
- Condition set: enzyme inhibition, Table 5
pKi: −log10 of the molar value.
Quantity name: pKi

# count of solved cases: 2
query: Please report the measured pKi for O=C(O)c1cc(-c2c(Cl)cnc3[nH]ccc23)c[nH]1 [compound 81]
result: > 6.30

query: Please report the measured pKi for CC(C)CNc1cccc(-c2c(Cl)cnc3[nH]ccc23)n1 [compound 78]
result: 5.30 to 6.30

New cases:
query: Please report the measured pKi for CNCc1cccc(-c2ccnc3[nH]ccc23)c1 [compound 84]
result: 5.30 to 6.30

query: Please report the measured pKi for Clc1ccccc1CCNc1cccc(-c2ccnc3[nH]ccc23)n1 [compound 34]
result: 5.30 to 6.30

query: Please report the measured pKi for CC1CC=C(c2c(Cl)cnc3[nH]ccc23)C1C (centres unmarked) [compound 90]
result: > 6.30

query: Please report the measured pKi for N#CCc1cccc(-c2ccnc3[nH]ccc23)c1 [compound 63]
result: > 6.30

query: Please report the measured pKi for COCC(=O)Nc1cc(-c2ccnc3[nH]ccc23)cs1 [compound 23]
result: 5.30 to 6.30

query: Please report the measured pKi for CN(C)C(=O)c1cccc(-c2ccnc3[nH]ccc23)c1 [compound 92]
result: 5.30 to 6.30

query: Please report the measured pKi for CC(C)(C(=O)O)c1cccc(-c2ccnc3[nH]ccc23)n1 [compound 96]
result: 5.30 to 6.30

###

Property: pKi; scope: individual molecules
- Study target: UniProt:O60674
- Sequence (O60674 whole entry): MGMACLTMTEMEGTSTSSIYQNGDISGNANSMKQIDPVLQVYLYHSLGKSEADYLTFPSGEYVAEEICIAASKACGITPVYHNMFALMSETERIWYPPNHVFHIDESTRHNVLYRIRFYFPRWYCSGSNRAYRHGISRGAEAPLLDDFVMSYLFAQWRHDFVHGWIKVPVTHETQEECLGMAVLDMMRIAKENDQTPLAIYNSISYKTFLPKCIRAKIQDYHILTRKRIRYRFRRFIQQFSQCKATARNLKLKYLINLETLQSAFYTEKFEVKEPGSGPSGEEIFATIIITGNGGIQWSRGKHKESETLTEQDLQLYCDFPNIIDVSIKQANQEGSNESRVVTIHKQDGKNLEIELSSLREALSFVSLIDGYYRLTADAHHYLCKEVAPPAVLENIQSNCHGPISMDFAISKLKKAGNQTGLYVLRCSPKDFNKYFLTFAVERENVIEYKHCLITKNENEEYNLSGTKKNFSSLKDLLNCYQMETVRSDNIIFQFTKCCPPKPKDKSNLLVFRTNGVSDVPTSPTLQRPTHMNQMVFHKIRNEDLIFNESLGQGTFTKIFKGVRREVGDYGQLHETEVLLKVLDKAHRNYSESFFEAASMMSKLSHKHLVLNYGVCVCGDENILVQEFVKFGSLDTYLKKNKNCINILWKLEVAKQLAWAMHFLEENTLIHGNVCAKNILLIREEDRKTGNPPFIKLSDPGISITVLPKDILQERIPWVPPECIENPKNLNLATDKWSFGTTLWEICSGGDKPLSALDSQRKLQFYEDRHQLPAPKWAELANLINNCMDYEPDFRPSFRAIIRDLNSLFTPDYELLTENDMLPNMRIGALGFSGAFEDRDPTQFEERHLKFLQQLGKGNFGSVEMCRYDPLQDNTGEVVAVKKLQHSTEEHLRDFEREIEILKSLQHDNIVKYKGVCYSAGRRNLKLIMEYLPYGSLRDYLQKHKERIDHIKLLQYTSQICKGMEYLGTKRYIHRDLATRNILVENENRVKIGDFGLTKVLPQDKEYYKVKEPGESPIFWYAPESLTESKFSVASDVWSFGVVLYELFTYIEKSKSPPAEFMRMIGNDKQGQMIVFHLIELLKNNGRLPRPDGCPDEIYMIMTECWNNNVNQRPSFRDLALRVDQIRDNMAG
- Protocol details: JAK2 inhibition assay (as Example 3 with JAK-2 enzyme)
- Format: biochemical
- Condition set: enzyme inhibition, Table 5
- Method: Compounds were screened for their ability to inhibit JAK using the assay shown below. Reactions were carried out in a kinase buffer containing 100 mM HEPES (pH 7.4), 1 mM DTT, 10 mM MgCl2, 25 mM NaCl, and 0.01% BSA. […] To each well of a 96 well polycarbonate plate was added 1.5 μl of a candidate JAK3 inhibitor along with 50/1 of kinase buffer containing 2 μM poly(Glu)4Tyr and 10 μM ATP. […] After washing, 60 μl of scintillation fluid was added and ^33P incorporation detected on a Perkin Elmer TopCount. […]
pKi: −log10 of the molar value.

query: Please report the measured pKi for O=C(O)c1cc(-c2c(Cl)cnc3[nH]ccc23)c[nH]1
result: > 6.30

query: Please report the measured pKi for O=C(CC(F)(F)F)N1CC=C(c2ccnc3[nH]ccc23)CC1
result: > 6.30

query: Please report the measured pKi for c1cc(-c2ccnc3[nH]ccc23)nc(N2CCC[C@H]2CN2CCCC2)c1
result: < 5.30

query: Please report the measured pKi for CNCc1cccc(-c2ccnc3[nH]ccc23)c1
result: 5.30 to 6.30

query: Please report the measured pKi for N#CCc1cccc(-c2ccnc3[nH]ccc23)c1
result: > 6.30

query: Please report the measured pKi for N#CC1(c2cccc(-c3ccnc4[nH]ccc34)n2)CC1
result: > 6.30

query: Please report the measured pKi for O=C(O)c1cccc(-c2ccnc3[nH]ccc23)c1
result: 5.30 to 6.30

query: Please report the measured pKi for CC1CC=C(c2c(Cl)cnc3[nH]ccc23)C1C (centres unmarked)
result: > 6.30

query: Please report the measured pKi for C[C@H](Nc1cccc(-c2ccnc3[nH]ccc23)n1)C(=O)NCC(F)(F)F
result: 5.30 to 6.30

query: Please report the measured pKi for Clc1cnc2[nH]ccc2c1NC1CCCCC1
result: > 6.30

New cases:
query: Please report the measured pKi for CC(=O)Nc1cccc(-c2ccnc3[nH]ccc23)c1
result: 5.30 to 6.30

query: Please report the measured pKi for C[C@H](Nc1ccnc(-c2ccnc3[nH]ccc23)n1)C(=O)NCC(F)(F)F
result: 5.30 to 6.30

query: Please report the measured pKi for O=C(Nc1cccc(-c2ccnc3[nH]ccc23)n1)c1ccccc1
result: > 6.30

query: Please report the measured pKi for OC1CCN(c2cccc(-c3ccnc4[nH]ccc34)n2)C1 (centres unmarked)
result: 5.30 to 6.30

query: Please report the measured pKi for c1cc(-c2ccnc3[nH]ccc23)c2ccoc2c1
result: > 6.30

query: Please report the measured pKi for c1cc(-c2ccoc2)c2cc[nH]c2n1 [compound 133, 4-Furan-3-yl-1H-pyrrolo[2,3-b]pyridine]
result: > 6.30

query: Please report the measured pKi for CC(C)(C)OC(=O)N1CC=C(c2ccnc3[nH]ccc23)CC1
result: > 6.30

query: Please report the measured pKi for CN(C)C(=O)c1cccc(-c2ccnc3[nH]ccc23)c1
result: 5.30 to 6.30

query: Please report the measured pKi for CC(=O)N1[C@H](C)CN(c2cccc(-c3ccnc4[nH]ccc34)n2)C[C@@H]1C
result: > 6.30

query: Please report the measured pKi for c1cc(NCC2COc3ccccc3O2)nc(-c2ccnc3[nH]ccc23)c1 (centres unmarked)
result: 5.30 to 6.30

query: Please report the measured pKi for FC(F)(F)c1cccc(-c2ccnc3[nH]ccc23)c1
result: > 6.30

query: Please report the measured pKi for CC(C)(C(=O)O)c1cccc(-c2ccnc3[nH]ccc23)n1
result: 5.30 to 6.30

query: Please report the measured pKi for c1cc(NCC2CCCO2)nc(-c2ccnc3[nH]ccc23)c1 (centres unmarked)
result: 5.30 to 6.30

query: Please report the measured pKi for C[C@H](Nc1ccnc(-c2ccnc3[nH]ccc23)n1)C(=O)NC1CC1
result: 5.30 to 6.30

query: Please report the measured pKi for CN(C)CCN(C)c1cccc(-c2c(Cl)cnc3[nH]ccc23)n1
result: > 6.30

query: Please report the measured pKi for CC(=O)N1CCCN(c2cccc(-c3ccnc4[nH]ccc34)n2)CC1
result: > 6.30
